Molecular target: Full length Human FAK (Flag-His-TEV-FAK1) (Homo sapiens, UniProt Q05397)
Construct: Full length Human FAK was expressed using baculovirus in Sf9 cells; made in house; host or cells: baculovirus in Sf9 cells
Sequence (Q05397 whole entry): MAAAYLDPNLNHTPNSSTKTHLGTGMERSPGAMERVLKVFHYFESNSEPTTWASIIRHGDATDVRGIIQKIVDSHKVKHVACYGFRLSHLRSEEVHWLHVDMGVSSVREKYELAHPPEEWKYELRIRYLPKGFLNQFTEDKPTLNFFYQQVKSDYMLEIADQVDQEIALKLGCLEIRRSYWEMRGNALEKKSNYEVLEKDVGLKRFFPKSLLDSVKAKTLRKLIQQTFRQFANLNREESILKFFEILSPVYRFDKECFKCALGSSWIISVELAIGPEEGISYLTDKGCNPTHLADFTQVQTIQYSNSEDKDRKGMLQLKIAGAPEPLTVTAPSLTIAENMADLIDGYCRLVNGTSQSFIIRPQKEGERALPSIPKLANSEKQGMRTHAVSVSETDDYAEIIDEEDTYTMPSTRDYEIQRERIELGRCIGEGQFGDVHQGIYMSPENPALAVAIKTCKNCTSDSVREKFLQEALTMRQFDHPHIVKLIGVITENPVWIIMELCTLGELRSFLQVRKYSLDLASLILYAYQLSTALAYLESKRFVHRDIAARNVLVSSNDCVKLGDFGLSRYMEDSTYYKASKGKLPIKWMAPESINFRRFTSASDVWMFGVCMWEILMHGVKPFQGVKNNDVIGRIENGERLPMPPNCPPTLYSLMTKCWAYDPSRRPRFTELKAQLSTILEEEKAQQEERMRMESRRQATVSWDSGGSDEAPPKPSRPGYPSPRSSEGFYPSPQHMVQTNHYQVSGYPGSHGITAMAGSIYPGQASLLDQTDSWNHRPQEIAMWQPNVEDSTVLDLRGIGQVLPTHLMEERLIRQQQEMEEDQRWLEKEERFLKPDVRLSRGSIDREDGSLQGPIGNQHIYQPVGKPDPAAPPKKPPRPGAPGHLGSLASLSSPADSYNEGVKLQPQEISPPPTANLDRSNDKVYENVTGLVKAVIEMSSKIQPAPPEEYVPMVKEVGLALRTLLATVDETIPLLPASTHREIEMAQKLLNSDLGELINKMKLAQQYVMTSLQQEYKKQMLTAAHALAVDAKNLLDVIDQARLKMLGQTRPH
Assay: Biochemical assay for FAK activity, Assay 2: LANCE Ultra ULight peptide phosphorylation, 665 nm/615 nm ratio
Settings: Flag-His-TEV-FAK1, 10 μM ATP, 30 min pre-incubation; read-out: Assay 2 FAK H 31284A TRF PXC50 (converted)
PROPERTY MEASURED: IC50 (nM)

1. CONC(=O)c1ccccc1Nc1cc(Nc2c(C)cnn2C(C)C)ncc1Cl
2. CONC(=O)c1cccc(F)c1Nc1cc(Nc2cc(C)nn2C)ncc1Cl [Example 95b]
Of the pair 1 and 2 , name the member with the lesser recorded IC50. State your choice using its label.
2

I. CNC(=O)c1ccccc1Nc1cc(Nc2cc(C)nn2C)ncc1C(C)C
II. CNC(=O)c1ccccc1Nc1cc(Nc2cc(C)nn2C(C)C)ncc1C(F)(F)F
Of the pair I and II , name the member with the lesser recorded IC50. State your choice using its label.
II
(II: 1.58 nM, I: 50.1 nM)

a. CCn1nc(C)cc1Nc1cc(Nc2ccccc2C(=O)N(C)O)c(Cl)cn1
b. CNC(=O)c1ccccc1Nc1cc(Nc2cc(C)nn2C)ncc1C#N
Of the pair a and b , name the member with the lesser recorded IC50. State your choice using its label.
b

A. CNC(=O)c1cc(F)ccc1Nc1cc(Nc2cc(C)nn2C)ncc1Cl [Example 83]
B. CNC(=O)c1ccccc1Nc1cc(Nc2cnn(C)c2C)ncc1Cl
Of the pair A and B , name the member with the lesser recorded IC50. State your choice using its label.
B

* * *

Molecular target: Full length Human FAK (Flag-His-TEV-FAK1) (Homo sapiens, UniProt Q05397)
Construct: Full length Human FAK was expressed using baculovirus in Sf9 cells; made in house; host or cells: baculovirus in Sf9 cells
Experiment: Biochemical assay for FAK activity, Assay 2: LANCE Ultra ULight peptide phosphorylation, 665 nm/615 nm ratio
Settings: Flag-His-TEV-FAK1, 10 μM ATP, 30 min pre-incubation; read-out: Assay 2 FAK H 31284A TRF PXC50 (converted)
Protocol: Flag-His-TEV-FAK1 was prepared in-house. Full length Human FAK was expressed using baculovirus in Sf9 cells with N-terminal FLAG-6×His tags followed by a TEV cleavage site (FLAG-6×His-TEV-huFAK). […] To measure inhibitors of FAK, compounds were first prepared as a 100× stock in 100% DMSO. […] After incubating for 120 minutes at room temperature, the reaction is quenched by adding 5 uL of 20 mM EDTA and 5nMEu-Anti-pTyr antibody in 1× LANCE detection buffer.
PROPERTY MEASURED: IC50 (nM)

{"SMILES ENTRY": "CNC(=O)c1cccc(F)c1Nc1cc(Nc2cc(C)nn2C)ncc1Cl", "IC50 (nM)": 5.01}
{"SMILES ENTRY": "CONC(=O)c1ccccc1Nc1cc(Nc2c(C)cnn2CC(C)C)ncc1Cl", "IC50 (nM)": 20}
{"SMILES ENTRY": "CCn1nc(C(=O)NOC)cc1Nc1cc(Nc2ccccc2C(=O)NC)c(Cl)cn1", "IC50 (nM)": 63.1}

I. CCn1nc(C)cc1Nc1cc(Nc2ccc(F)cc2C(=O)NC)c(Cl)cn1
II. [2H]C([2H])(O)c1cc(Nc2cc(Nc3c(F)cccc3C(=O)NC)c(Cl)cn2)n(CC)n1
// compare measured IC50, left I , right II , return larger State your choice using its label.
I
